Molecular target: Serine/threonine-protein kinase B-raf (Homo sapiens)
Experiment: Inhibition of human wild type BRAF at 10 uM by ELISA
Recorded inhibition for the following molecules
Give the number; % is assumed, so skip it.

[
  {
    "SAMPLE SMILES": "COc1ccc(S(=O)(=O)NCCNc2nccc(-n3ccc4cccnc43)n2)cc1",
    "inhibition, %": 39.2
  },
  {
    "SAMPLE SMILES": "Cc1ccc(S(=O)(=O)NCCCNc2nccc(-n3ccc4cccnc43)n2)cc1",
    "inhibition, %": 83.3
  },
  {
    "SAMPLE SMILES": "COc1ccc(NC(=O)Nc2ccc(F)c(C(=O)c3c[nH]c4ncccc34)c2F)cc1",
    "inhibition, %": 69.6
  },
  {
    "SAMPLE SMILES": "Cc1ccc(NC(=O)Nc2ccc(F)c(C(=O)c3c[nH]c4ncccc34)c2F)cc1",
    "inhibition, %": 77.6
  },
  {
    "SAMPLE SMILES": "O=C(NCCCNc1nccc(-n2ccc3cccnc32)n1)c1ccccc1",
    "inhibition, %": 60.9
  }
]

What measured inhibition goes with Cc1ccc(S(=O)(=O)NCCNc2nccc(-n3ccc4cccnc43)n2)cc1 ?
26.3

Follow-up item: O=C(NCCNc1nccc(-n2ccc3cccnc32)n1)c1ccccc1
86.3

====

Test system: Serine/threonine-protein kinase B-raf (Homo sapiens), P15056 [V600E]
Sequence (P15056 whole entry V600E): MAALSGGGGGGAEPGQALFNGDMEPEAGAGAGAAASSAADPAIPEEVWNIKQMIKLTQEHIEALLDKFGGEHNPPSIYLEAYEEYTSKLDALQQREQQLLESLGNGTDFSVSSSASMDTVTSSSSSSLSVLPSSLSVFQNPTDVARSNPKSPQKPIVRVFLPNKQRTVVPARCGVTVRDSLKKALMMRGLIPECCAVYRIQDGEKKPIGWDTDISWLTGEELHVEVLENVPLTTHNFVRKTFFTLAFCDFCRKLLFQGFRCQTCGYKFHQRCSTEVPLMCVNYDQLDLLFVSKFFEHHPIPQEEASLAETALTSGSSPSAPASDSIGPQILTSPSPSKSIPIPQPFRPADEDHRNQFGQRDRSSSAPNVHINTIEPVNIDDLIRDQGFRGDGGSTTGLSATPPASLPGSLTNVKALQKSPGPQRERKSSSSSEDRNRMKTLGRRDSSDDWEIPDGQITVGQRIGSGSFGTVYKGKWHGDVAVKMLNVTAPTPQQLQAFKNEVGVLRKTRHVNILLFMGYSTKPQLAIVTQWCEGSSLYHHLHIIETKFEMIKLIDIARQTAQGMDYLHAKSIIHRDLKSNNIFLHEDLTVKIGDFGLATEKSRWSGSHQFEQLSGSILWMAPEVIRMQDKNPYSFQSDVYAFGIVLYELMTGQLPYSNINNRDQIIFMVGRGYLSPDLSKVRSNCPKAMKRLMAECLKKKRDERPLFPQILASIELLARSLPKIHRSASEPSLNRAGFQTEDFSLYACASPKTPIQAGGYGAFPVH
Assay: Inhibition of human BRAF V600E mutant at 10 uM by ELISA
Tag: Y if measured inhibition is not below 80%, N if it is.

Below, 8 molecules whose answers are already recorded.
[
  {
    "SAMPLE SMILES": "O=C(NCCNc1nccc(-n2ccc3cccnc32)n1)c1ccc(Cl)cc1",
    "CATEGORY LABEL": "N"
  },
  {
    "SAMPLE SMILES": "O=S(=O)(NCCCNc1nccc(-n2ccc3cccnc32)n1)c1ccc(Cl)cc1",
    "CATEGORY LABEL": "Y"
  },
  {
    "SAMPLE SMILES": "O=S(=O)(NCCNc1nccc(-n2ccc3cccnc32)n1)c1cccc(Br)c1",
    "CATEGORY LABEL": "N"
  },
  {
    "SAMPLE SMILES": "O=C(NCCCNc1nccc(-n2ccc3cccnc32)n1)C1CCCCC1",
    "CATEGORY LABEL": "N"
  },
  {
    "SAMPLE SMILES": "O=S(=O)(NCCCNc1nccc(-n2ccc3cccnc32)n1)c1ccc(Br)cc1",
    "CATEGORY LABEL": "Y"
  },
  {
    "SAMPLE SMILES": "O=C(Nc1ccccc1)Nc1ccc(F)c(C(=O)c2c[nH]c3ncccc23)c1F",
    "CATEGORY LABEL": "Y"
  },
  {
    "SAMPLE SMILES": "O=C(Nc1ccc(C(F)(F)F)cc1)Nc1ccc(F)c(C(=O)c2c[nH]c3ncccc23)c1F",
    "CATEGORY LABEL": "Y"
  },
  {
    "SAMPLE SMILES": "O=S(=O)(NCCNc1nccc(-n2ccc3cccnc32)n1)c1ccc(F)cc1",
    "CATEGORY LABEL": "Y"
  }
]

Can O=C(NCCNc1nccc(-n2ccc3cccnc32)n1)c1c(F)cccc1F be said to have inhibition at or above 80%?
N

Follow-up item: O=C(NCCNc1nccc(-n2ccc3cccnc32)n1)c1ccccc1
Y

Follow-up item: O=S(=O)(NCCNc1nccc(-n2ccc3cccnc32)n1)c1cccc(C(F)(F)F)c1
N

Follow-up item: O=C(Nc1cccc(F)c1)Nc1ccc(F)c(C(=O)c2c[nH]c3ncccc23)c1F
N

====

System: Serine/threonine-protein kinase B-raf (Homo sapiens), P15056 [V600E]
Assay: Inhibition of human BRAF V600E mutant at 10 uM by ELISA
Entries are sorted into classes by inhibition as follows: band A (below 70%), band B (70% to below 90%), band C (90% or more)

[
  {
    "SAMPLE SMILES": "O=C(NCCCNc1nccc(-n2ccc3cccnc32)n1)c1ccc(F)cc1",
    "CATEGORY LABEL": "band A"
  },
  {
    "SAMPLE SMILES": "COc1ccc(S(=O)(=O)NCCNc2nccc(-n3ccc4cccnc43)n2)cc1",
    "CATEGORY LABEL": "band A"
  },
  {
    "SAMPLE SMILES": "O=S(=O)(NCCCNc1nccc(-n2ccc3cccnc32)n1)c1cccc(C(F)(F)F)c1",
    "CATEGORY LABEL": "band C"
  }
]

Class for O=C(NCCNc1nccc(-n2ccc3cccnc32)n1)c1ccc(C(F)(F)F)cc1 ?
band A

Follow-up item: O=S(=O)(NCCNc1nccc(-n2ccc3cccnc32)n1)c1ccccc1
band A

Follow-up item: O=C(Nc1ccc(F)c(C(=O)c2c[nH]c3ncccc23)c1F)Nc1cccc2ccccc12
band B

Follow-up item: Cc1ccc(C(=O)NCCNc2nccc(-n3ccc4cccnc43)n2)cc1
band B

Follow-up item: O=S(=O)(NCCCNc1nccc(-n2ccc3cccnc32)n1)c1ccc(F)cc1
band C

Follow-up item: Cc1ccc(NC(=O)Nc2ccc(F)c(C(=O)c3c[nH]c4ncccc34)c2F)cc1
band C

====

Target: Serine/threonine-protein kinase B-raf (Homo sapiens, UniProt P15056)
Sequence (P15056 whole entry): as the sequence (P15056 whole entry V600E) above, with E600V counted along it
Assay: Inhibition of human wild type BRAF at 10 uM by ELISA
Recorded inhibition for the following compounds

Look over these answered cases.
[
  {
    "SAMPLE SMILES": "O=C(Nc1ccc(Br)cc1)Nc1ccc(F)c(C(=O)c2c[nH]c3ncc(Br)cc23)c1F",
    "TARGET OR TEST SYSTEM": "Serine/threonine-protein kinase B-raf (Homo sapiens, UniProt P15056)",
    "inhibition": "72.5%"
  },
  {
    "SAMPLE SMILES": "O=C(NCCNc1nccc(-n2ccc3cccnc32)n1)c1ccc(F)cc1",
    "TARGET OR TEST SYSTEM": "Serine/threonine-protein kinase B-raf (Homo sapiens, UniProt P15056)",
    "inhibition": "56.8%"
  },
  {
    "SAMPLE SMILES": "O=C(NCCNc1nccc(-n2ccc3cccnc32)n1)c1ccc(C(F)(F)F)cc1",
    "TARGET OR TEST SYSTEM": "Serine/threonine-protein kinase B-raf (Homo sapiens, UniProt P15056)",
    "inhibition": "12.1%"
  },
  {
    "SAMPLE SMILES": "Cc1ccc(C(=O)NCCCNc2nccc(-n3ccc4cccnc43)n2)cc1",
    "TARGET OR TEST SYSTEM": "Serine/threonine-protein kinase B-raf (Homo sapiens, UniProt P15056)",
    "inhibition": "50%"
  },
  {
    "SAMPLE SMILES": "O=S(=O)(NCCCNc1nccc(-n2ccc3cccnc32)n1)c1ccc(Cl)cc1",
    "TARGET OR TEST SYSTEM": "Serine/threonine-protein kinase B-raf (Homo sapiens, UniProt P15056)",
    "inhibition": "66.5%"
  }
]

What measured inhibition goes with O=S(=O)(NCCCNc1nccc(-n2ccc3cccnc32)n1)c1cccc(Br)c1 ?
89.4%

Follow-up item: O=C(Nc1ccccc1)Nc1ccc(F)c(C(=O)c2c[nH]c3ncccc23)c1F
86.5%

Follow-up item: O=C(NCCNc1nccc(-n2ccc3cccnc32)n1)C1CCCCC1
43.4%

Follow-up item: O=S(=O)(NCCNc1nccc(-n2ccc3cccnc32)n1)c1ccc(Br)cc1
44.6%

Follow-up item: O=C(NCCCNc1nccc(-n2ccc3cccnc32)n1)c1ccc(C(F)(F)F)cc1
9.45%

Follow-up item: Cc1ccc(C(=O)NCCNc2nccc(-n3ccc4cccnc43)n2)cc1
53.8%

Follow-up item: O=C(Nc1ccc(Br)cc1)Nc1ccc(F)c(C(=O)c2c[nH]c3ncccc23)c1F
80.1%

Follow-up item: O=C(Nc1cccc(F)c1)Nc1ccc(F)c(C(=O)c2c[nH]c3ncccc23)c1F
51.2%

Follow-up item: O=C(NCCCNc1nccc(-n2ccc3cccnc32)n1)c1c(F)cccc1F
67.2%

====

Test system: Serine/threonine-protein kinase B-raf (Homo sapiens), P15056 [V600E]
Experiment: Inhibition of human BRAF V600E mutant at 10 uM by ELISA
Tag: fulfilled if measured inhibition is not below 80%, not fulfilled if it is.

Below, 2 compounds whose answers are already recorded.
[
  {
    "SAMPLE SMILES": "O=C(NCCCNc1nccc(-n2ccc3cccnc32)n1)c1ccc(C(F)(F)F)cc1",
    "TARGET OR TEST SYSTEM": "Serine/threonine-protein kinase B-raf (Homo sapiens), P15056 [V600E]",
    "CATEGORY LABEL": "not fulfilled"
  },
  {
    "SAMPLE SMILES": "O=S(=O)(NCCCNc1nccc(-n2ccc3cccnc32)n1)c1cccc(Br)c1",
    "TARGET OR TEST SYSTEM": "Serine/threonine-protein kinase B-raf (Homo sapiens), P15056 [V600E]",
    "CATEGORY LABEL": "fulfilled"
  }
]

Now look at this entry.
Can O=C(Nc1ccc(Br)cc1)Nc1ccc(F)c(C(=O)c2c[nH]c3ncccc23)c1F be said to have inhibition at or above 80%?
fulfilled
